# method: in vitro
# condition label: human, leucocytes, % of dead cells (Average of 2 determinations), 30 hours; C4 = 1.0 μg/ml; no PHA
Below, each of the compounds is paired with its reported cytotoxicity at 30 h value.
Only the number, expressed in %, is required.

* COc1cc2c(c(OC)c1OC)-c1ccc(SC)c(=O)cc1C(NC(=O)C13CC4CC(CC(C4)C1)C3)CC2 (single isomer, unassigned) [Derivative, N-desacetyl-N-adamantoyl-thiocolchicine] | 49

What value of measured cytotoxicity at 30 h is listed for COc1cc2c(c(OC)c1OC)-c1ccc(OC)c(=O)cc1[C@@H](NC(C)=O)CC2 [Colchicine, colchicine, reference compound] ?
59

====

Measured cytotoxicity at 42 h values are reported for all entries that follow.
# method: in vitro
# Assay type: cell-based, human
# condition label: human, leucocytes, first experimentation; 42 hours; C6 = 50 μg/ml; read-out: % of dead cells
Numeric answer only, unit % assumed.

- COc1cc2c(c(OC)c1OC)-c1ccc(SC)c(=O)cc1C(NC(=O)C13CC4CC(CC(C4)C1)C3)CC2 (single isomer, unassigned): 32

Any idea what cytotoxicity at 42 h was measured for COc1cc2c(c(OC)c1OC)-c1ccc(OC)c(=O)cc1[C@@H](NC(C)=O)CC2 [Colchicine, colchicine, reference compound] ?
2

====

# method: in vitro
# Format: cell-based, human
# condition label: human, leucocytes, Culture I; 76 hours; C6 = 50 μg/ml; read-out: % of dead cells
observed property: cytotoxicity at 76 h (%)
Your answer should be a plain number; it is taken to be in %.

• COc1cc2c(c(OC)c1OC)-c1ccc(SC)c(=O)cc1C(NC(=O)C13CC4CC(CC(C4)C1)C3)CC2 (single isomer, unassigned) = 62

Requested field: cytotoxicity at 76 h. Item: COc1cc2c(c(OC)c1OC)-c1ccc(OC)c(=O)cc1[C@@H](NC(C)=O)CC2 [Colchicine, colchicine, reference compound]
23

====

Reported cytotoxicity at 6 h values follow for various molecules
# method: in vitro
# condition label: human, leucocytes, % of dead cells (Average of 2 determinations), 6 hours; C5 = 2.5 μg/ml; no PHA
Respond numerically; units are % and should not be typed.

* COc1cc2c(c(OC)c1OC)-c1ccc(SC)c(=O)cc1C(NC(=O)C13CC4CC(CC(C4)C1)C3)CC2 (single isomer, unassigned) | 1

Let us move to another entry and its cytotoxicity at 6 h.
Consider the molecule COc1cc2c(c(OC)c1OC)-c1ccc(OC)c(=O)cc1[C@@H](NC(C)=O)CC2 [Colchicine, colchicine, reference compound] and give its measured cytotoxicity at 6 h.
1

====

# method: in vitro
# Type: cell-based, human
# condition label: human, leucocytes, Culture I; 4 hours; C6 = 50 μg/ml; read-out: % of dead cells
observed property: cytotoxicity at 4 h (%)
Reply with just the number (in %).

* COc1cc2c(c(OC)c1OC)-c1ccc(SC)c(=O)cc1C(NC(=O)C13CC4CC(CC(C4)C1)C3)CC2 (single isomer, unassigned) | 17

Consider the additional compound presented here.
I am curious: what cytotoxicity at 4 h value has been reported for COc1cc2c(c(OC)c1OC)-c1ccc(OC)c(=O)cc1[C@@H](NC(C)=O)CC2 [Colchicine, colchicine, reference compound] ?
9

====

# method: in vitro
# Format: cell-based, human
# condition label: human, leucocytes, Culture II; 46 hours; carboxy-1-adamantane C6 = 22.5 μg/ml; read-out: % of dead cells
observed property: cytotoxicity at 46 h (%)
State the answer as a number, implicitly in %.

For the compound O=C(O)C12CC3CC(CC(C3)C1)C2 [carboxy-1-adamantane] , what cytotoxicity at 46 h is on record?
10

====

# method: in vitro
# Format: cell-based, human
# condition label: human, leucocytes, first experimentation; 3 hours; C5 = 30 μg/ml; read-out: % of dead cells
observed property: cytotoxicity at 3 h (%)
State the answer as a number, implicitly in %.

* COc1cc2c(c(OC)c1OC)-c1ccc(SC)c(=O)cc1C(NC(=O)C13CC4CC(CC(C4)C1)C3)CC2 (single isomer, unassigned) | 0

Next up:
What value of measured cytotoxicity at 3 h is listed for COc1cc2c(c(OC)c1OC)-c1ccc(OC)c(=O)cc1[C@@H](NC(C)=O)CC2 [Colchicine, colchicine, reference compound] ?
0

====

# method: in vitro
# condition label: human, leucocytes, % of dead cells (Average of 2 determinations), 30 hours; C3 = 0.5 μg/ml; no PHA
Measured cytotoxicity at 30 h of individual entries

• COc1cc2c(c(OC)c1OC)-c1ccc(SC)c(=O)cc1C(NC(=O)C13CC4CC(CC(C4)C1)C3)CC2 (single isomer, unassigned) = 50%

Please find the next compound below.
Sample COc1cc2c(c(OC)c1OC)-c1ccc(OC)c(=O)cc1[C@@H](NC(C)=O)CC2 [Colchicine, colchicine, reference compound] — what was its cytotoxicity at 30 h?
54%

====

# method: in vitro
# Assay type: cell-based, human
# condition label: human, leucocytes, Culture I; 76 hours; C3 = 10 μg/ml; read-out: % of dead cells
observed property: cytotoxicity at 76 h (%)
Write it as a number; the unit % goes unstated.

• COc1cc2c(c(OC)c1OC)-c1ccc(SC)c(=O)cc1C(NC(=O)C13CC4CC(CC(C4)C1)C3)CC2 (single isomer, unassigned) [Derivative, N-desacetyl-N-adamantoyl-thiocolchicine] = 40

Now examine the next entry.
Give the measured cytotoxicity at 76 h of COc1cc2c(c(OC)c1OC)-c1ccc(OC)c(=O)cc1[C@@H](NC(C)=O)CC2 [Colchicine, colchicine, reference compound] .
24

====

Parameter cytotoxicity at 30 h: see the listing below.
# method: in vitro
# condition label: human, leucocytes, % of dead cells (Average of 2 determinations), 30 hours; C6 = 10.0 μg/ml; no PHA

- COc1cc2c(c(OC)c1OC)-c1ccc(SC)c(=O)cc1C(NC(=O)C13CC4CC(CC(C4)C1)C3)CC2 (single isomer, unassigned) [Derivative, N-desacetyl-N-adamantoyl-thiocolchicine]: 67%

Now look at this entry.
Entry COc1cc2c(c(OC)c1OC)-c1ccc(OC)c(=O)cc1[C@@H](NC(C)=O)CC2 [Colchicine, colchicine, reference compound] : reported cytotoxicity at 30 h = ?
46%

====

# method: in vitro
# condition label: human, leucocytes, % of dead cells (Average of 2 determinations), 30 hours; C5 = 2.5 μg/ml; no PHA
The reader will find reported cytotoxicity at 30 h values listed item by item below.
Give just the number in %; leave the unit off.

• COc1cc2c(c(OC)c1OC)-c1ccc(OC)c(=O)cc1[C@@H](NC(C)=O)CC2 [Colchicine, colchicine, reference compound] = 60

Now consider a different compound.
Please report the recorded cytotoxicity at 30 h for COc1cc2c(c(OC)c1OC)-c1ccc(SC)c(=O)cc1C(NC(=O)C13CC4CC(CC(C4)C1)C3)CC2 (single isomer, unassigned) [Derivative, N-desacetyl-N-adamantoyl-thiocolchicine] .
45

====

# method: in vitro
# Format: cell-based, human
# condition label: human, leucocytes, first experimentation; 68 hours; C3 = 10 μg/ml; read-out: % of dead cells
observed property: cytotoxicity at 68 h (%)
Give the value, in units of %, as a plain number.

- COc1cc2c(c(OC)c1OC)-c1ccc(OC)c(=O)cc1[C@@H](NC(C)=O)CC2 [Colchicine, colchicine, reference compound]: 9

Okay, next one:
Requested read-out: cytotoxicity at 68 h. Entry: COc1cc2c(c(OC)c1OC)-c1ccc(SC)c(=O)cc1C(NC(=O)C13CC4CC(CC(C4)C1)C3)CC2 (single isomer, unassigned) [Derivative, N-desacetyl-N-adamantoyl-thiocolchicine]
9

====

# method: in vitro
# Type: cell-based, human
# condition label: human, leucocytes, Culture II; 23 hours; C1 = 2.5 μg/ml; read-out: % of dead cells
observed property: cytotoxicity at 23 h (%)
Provide only the numeric value, understood in %.

* COc1cc2c(c(OC)c1OC)-c1ccc(OC)c(=O)cc1[C@@H](NC(C)=O)CC2 [Colchicine, colchicine, reference compound] | 3

Item COc1cc2c(c(OC)c1OC)-c1ccc(SC)c(=O)cc1C(NC(=O)C13CC4CC(CC(C4)C1)C3)CC2 (single isomer, unassigned) [Derivative, N-desacetyl-N-adamantoyl-thiocolchicine] has what recorded cytotoxicity at 23 h?
8

====

# method: in vitro
# condition label: human, leucocytes, % of dead cells (Average of 2 determinations), 6 hours; C2 = 0.1 μg/ml; no PHA
Items are presented alongside their recorded cytotoxicity at 6 h.
A complete answer gives the number and then names the unit.

- COc1cc2c(c(OC)c1OC)-c1ccc(SC)c(=O)cc1C(NC(=O)C13CC4CC(CC(C4)C1)C3)CC2 (single isomer, unassigned): 1%

Consider the additional compound presented here.
Which cytotoxicity at 6 h is reported for this compound? COc1cc2c(c(OC)c1OC)-c1ccc(OC)c(=O)cc1[C@@H](NC(C)=O)CC2 [Colchicine, colchicine, reference compound]
0%

Values from patent US3997506A
